# MEASUREMENT DESCRIPTION: Volume of distribution at steady state in cynomolgus monkey at 1 mg/kg, iv administered as 5 mins infusion
# Assay type: ADME, organism-based, Macaca fascicularis
# RECORDED CONDITIONS: in vivo, read-out: Vdss
ASSAY READOUT: Vd
Hi, when you answer, please include the unit after the number. Thanks!

query: Return reported Vd; argument: c1cn(-c2cc(NC3=NC[C@@]4(CN5CCC4CC5)O3)ncn2)cn1
result: 5.7 L/kg

====

# MEASUREMENT DESCRIPTION: Half life in mouse at 1 mg/kg, iv administered as 5 mins infusion
# Format: ADME, organism-based
# RECORDED CONDITIONS: in vivo
ASSAY READOUT: half-life (h)
Numbers only, in h.

query: Which half-life is listed for c1cn(-c2cc(NC3=NC[C@@]4(CN5CCC4CC5)O3)ncn2)cn1 ?
result: 1.1

====

# TGT: Neuronal acetylcholine receptor subunit alpha-7 (Homo sapiens)
# Sequence (P36544 whole entry): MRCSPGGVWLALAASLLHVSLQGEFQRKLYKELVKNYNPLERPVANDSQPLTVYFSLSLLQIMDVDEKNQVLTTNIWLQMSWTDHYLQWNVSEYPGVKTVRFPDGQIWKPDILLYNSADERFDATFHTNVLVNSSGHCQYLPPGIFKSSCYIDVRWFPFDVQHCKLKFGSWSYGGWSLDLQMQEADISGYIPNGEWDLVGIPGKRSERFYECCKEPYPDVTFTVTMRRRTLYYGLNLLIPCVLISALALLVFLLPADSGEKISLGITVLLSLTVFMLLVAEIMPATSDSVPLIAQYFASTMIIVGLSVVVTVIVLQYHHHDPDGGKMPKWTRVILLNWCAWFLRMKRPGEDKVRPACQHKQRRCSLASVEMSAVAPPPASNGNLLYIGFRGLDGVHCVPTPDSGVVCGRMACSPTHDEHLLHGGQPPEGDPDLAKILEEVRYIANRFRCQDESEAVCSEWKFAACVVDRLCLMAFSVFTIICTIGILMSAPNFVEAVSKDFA
# MEASUREMENT DESCRIPTION: Displacement of [125I]alpha-bungarotoxin from human alpha7 nAChR expressed in HEK293 cell membranes incubated for 2 hrs and measured by gamma counting method
ASSAY READOUT: pKi
Answers are plain numbers, as −log10 of the molar value.

query: What measured pKi is associated with c1ccc2cc(NC3=NC[C@@]4(CN5CCC4CC5)O3)ncc2c1 on Neuronal acetylcholine receptor subunit alpha-7 (Homo sapiens)?
result: 8.89

====

# MEASUREMENT DESCRIPTION: Half life in rat at 1 mg/kg, iv administered as 5 mins infusion
# Type: ADME, organism-based
# RECORDED CONDITIONS: in vivo
ASSAY READOUT: half-life (min)
Answers are plain numbers, in min.

query: Dear colleague, I am looking for the recorded half-life of the following molecule: c1cn(-c2cc(NC3=NC[C@@]4(CN5CCC4CC5)O3)ncn2)cn1
result: 42

====

# MEASUREMENT DESCRIPTION: Metabolic stability in rat liver microsomes assessed as compound remaining at 3 uM after 10 mins by LC-MS/MS analysis
# Type: ADME, microsome
# RECORDED CONDITIONS: read-out: Stability
ASSAY READOUT: remaining at 10 min, 3 µM

c1ccc2cc(NC3=NC[C@@]4(CN5CCC4CC5)O3)ncc2c1    1%

Now for a further compound.
query: Please report the recorded remaining at 10 min, 3 µM for c1cn(-c2cc(NC3=NC[C@@]4(CN5CCC4CC5)O3)ncn2)cn1 .
result: 95%

====

# MEASUREMENT DESCRIPTION: AUC in cynomolgus monkey at 5 mg/kg, po
# Format: ADME, organism-based, Macaca fascicularis
# RECORDED CONDITIONS: in vivo
ASSAY READOUT: AUC
Please provide the amount together with its unit, number first.

query: # query: AUC of entry c1cn(-c2cc(NC3=NC[C@@]4(CN5CCC4CC5)O3)ncn2)cn1
result: 11 µM·h

====

# MEASUREMENT DESCRIPTION: Total plasma clearance in dog at 1 mg/kg, iv administered as 5 mins infusion
# Type: ADME, organism-based, Canis lupus familiaris
ASSAY READOUT: clearance (mL/min/kg)
Numbers only, in mL/min/kg.

query: Can you look up the measured clearance of c1cn(-c2cc(NC3=NC[C@@]4(CN5CCC4CC5)O3)ncn2)cn1 for me?
result: 15
